Source: the supplement of paper PMC12338614

B1: library; numbered along this chain (parent)
chain: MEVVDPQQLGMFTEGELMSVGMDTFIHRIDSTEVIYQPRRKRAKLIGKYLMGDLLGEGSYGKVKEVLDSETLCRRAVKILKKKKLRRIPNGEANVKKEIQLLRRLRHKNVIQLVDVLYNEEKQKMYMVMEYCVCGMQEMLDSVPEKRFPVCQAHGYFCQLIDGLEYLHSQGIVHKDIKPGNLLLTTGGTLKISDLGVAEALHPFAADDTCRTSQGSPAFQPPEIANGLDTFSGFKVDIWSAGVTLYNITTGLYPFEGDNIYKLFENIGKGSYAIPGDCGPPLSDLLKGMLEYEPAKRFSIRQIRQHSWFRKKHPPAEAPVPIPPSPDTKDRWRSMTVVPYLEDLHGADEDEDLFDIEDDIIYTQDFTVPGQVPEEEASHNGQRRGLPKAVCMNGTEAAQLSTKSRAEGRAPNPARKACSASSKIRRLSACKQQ

variants of: B1; assay: STK11 functional score (HeLa growth suppression), rescaled enrichment; synonymous median = 1, nonsense median = 0 (normalised score); settings: with HeLa; variant type: missense
measurement-kind: STK11 functional score

INSERT INTO results (variant_descriptor, obs_value) VALUES
  ('L341I', 1.56),
  ('S421G', 1.38),
  ('M18S', 1.31),
  ('S142F', 1.41),
  ('K388Q', 1.21),
  ('V368E', 1.42),
  ('E120T', 1.43),
  ('C151I', 0.722),
  ('E98M', 0.133),
  ('M335P', 1.5),
  ('V66A', 1.4),
  ('P89G', 0.213),
  ('I322C', 1.17),
  ('P6L', 0.99),
  ('K124V', 1.06),
  ('P315K', 1.56),
  ('A398I', 1.13),
  ('Q137E', 0.452),
  ('K423A', 0.687),
  ('L140N', 0.0882),
  ('V128F', 1.13),
  ('D194V', -0.261),
  ('K108W', 0.834),
  ('Q37R', 1.34),
  ('T250P', -0.224),
  ('P321V', 1.41),
  ('D277R', 1.34),
  ('R415V', 1.57),
  ('T328A', 1.62),
  ('K311A', 1.61),
  ('K108N', 1.29),
  ('V133L', 0.982),
  ('M392D', 1.19),
  ('I356L', 1.15),
  ('E92I', -0.0755),
  ('F309V', 0.0641),
  ('F219V', 0.825),
  ('W239A', 0.388),
  ('D207M', 1.17),
  ('D277S', 0.886),
  ('R211P', 1.19),
  ('S232D', 1.14),
  ('S325A', 1.05),
  ('G56T', 0.231),
  ('Q152C', 1.26),
  ('I192Y', 1.11),
  ('I35F', 0.949),
  ('D141T', 0.00893),
  ('L195A', 1.17),
  ('E293P', 0.842),
  ('K312D', 1.49),
  ('E374Q', 0.822),
  ('N393I', 1.39),
  ('W239C', 0.0722),
  ('H168P', 0.0717),
  ('K178S', 0.586),
  ('K122D', 1.52),
  ('L55I', 1.39),
  ('G251D', 0.751),
  ('R87P', 1.24),
  ('L167D', -0.162),
  ('E342L', 1.26),
  ('P89I', 1.41),
  ('L80Y', 1.13),
  ('P294H', 0.973),
  ('L386V', 1.06),
  ('F204G', 1.3),
  ('M289P', -0.379),
  ('T367I', 1.38),
  ('L140V', 0.909),
  ('H168Q', 0.947),
  ('E65L', 0.5),
  ('N247P', -0.0537),
  ('Y272F', 1.27),
  ('Y292M', 1.64),
  ('V116P', 0.975),
  ('C132W', -0.606),
  ('V4L', 0.909);
